# Measurement Target: UniProt:P35367
# Sequence (P35367 whole entry): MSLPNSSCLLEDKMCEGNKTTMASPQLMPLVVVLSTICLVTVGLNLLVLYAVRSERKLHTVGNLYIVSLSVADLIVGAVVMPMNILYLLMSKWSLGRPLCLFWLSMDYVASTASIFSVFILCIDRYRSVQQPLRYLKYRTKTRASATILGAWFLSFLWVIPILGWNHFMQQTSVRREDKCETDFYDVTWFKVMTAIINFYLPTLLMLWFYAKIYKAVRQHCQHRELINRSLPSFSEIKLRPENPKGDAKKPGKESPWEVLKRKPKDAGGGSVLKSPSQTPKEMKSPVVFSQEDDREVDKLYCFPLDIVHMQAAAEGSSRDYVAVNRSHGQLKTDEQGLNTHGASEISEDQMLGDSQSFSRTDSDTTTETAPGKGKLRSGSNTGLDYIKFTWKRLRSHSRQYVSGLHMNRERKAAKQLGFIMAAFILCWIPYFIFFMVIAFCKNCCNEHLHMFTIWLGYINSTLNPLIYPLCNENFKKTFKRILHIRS
The following molecules are shown together with reported AC50 values.
Observation Type: AC50

> print(dat)
                                    molecule  observed.result
 1  O=C(Nc1ccccc1)OCC(CN1CCCCC1)OC(=O)Nc1ccccc1 (stereo not given)          > 10 µM
 2   Cc1ccc(-c2nc3ccc(C)cn3c2CC(=O)N(C)C)cc1          > 30 µM
 3  CN1C(=O)N(C)C2C1N(C)C(=O)N2C (stereo not given)          > 30 µM
 4                  C1COC(NC(C2CC2)C2CC2)=N1          > 10 µM
 5  CN1C(=O)CC(c2ccccc2)C1=O (stereo not given) [PHENSUXIMIDE]          > 10 µM
 6                   CC(C)Cc1ccc(CC(=O)O)cc1          > 30 µM
 7  C=C1CC[C@@]2(O)[C@H]3Cc4ccc(O)c5c4[C@@]2(CCN3CC2CC2)[C@H]1O5          > 30 µM
 8  CCOC(=O)[C@H](CCc1ccccc1)N[C@H]1CCCN2CCC[C@@H](C(=O)O)N2C1=O          > 30 µM
 9                    CC1=CC(=O)c2ccccc2C1=O          > 30 µM
10       O=C(Cn1ccnc1[N+](=O)[O-])NCc1ccccc1          > 30 µM

====

Here the recorded AC50 is given for each entry.
# Measurement Target: 5-hydroxytryptamine receptor 2A (Homo sapiens, UniProt P28223); also: assay procedure not described here
# Sequence (P28223 whole entry): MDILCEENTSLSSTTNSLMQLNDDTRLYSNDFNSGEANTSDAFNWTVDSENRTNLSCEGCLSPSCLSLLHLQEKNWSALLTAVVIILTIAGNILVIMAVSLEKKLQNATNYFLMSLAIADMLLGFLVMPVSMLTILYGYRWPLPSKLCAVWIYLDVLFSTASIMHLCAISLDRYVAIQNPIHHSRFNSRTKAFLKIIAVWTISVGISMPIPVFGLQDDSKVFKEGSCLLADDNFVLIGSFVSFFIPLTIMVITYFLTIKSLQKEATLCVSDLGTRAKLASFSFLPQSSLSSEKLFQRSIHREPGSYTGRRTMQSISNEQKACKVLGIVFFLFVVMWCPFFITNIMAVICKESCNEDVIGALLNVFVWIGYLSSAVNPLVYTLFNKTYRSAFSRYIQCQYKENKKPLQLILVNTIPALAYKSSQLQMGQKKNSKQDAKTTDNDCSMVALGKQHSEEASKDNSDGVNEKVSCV
Observation Type: AC50

> print(dat)
                                   compound  observed.result
1  O=C(CCCCCCC(=O)Nc1ccccc1)NO [VORINOSTAT]          > 10 µM
2  C=C1C[C@@H]2[C@H](CC[C@]3(C)C(=O)CC[C@@H]23)[C@@]2(C)C=CC(=O)C=C12 [EXEMESTANE]          6.96 µM
3  CN1CC(=O)N2[C@H](c3ccc4c(c3)OCO4)c3[nH]c4ccccc4c3C[C@@H]2C1=O          > 10 µM
4  CC(C)NCC(O)COc1ccc(COCCOC(C)C)cc1 (stereo not drawn) [BISOPROLOL]          > 10 µM
5  CN1CCN(C(=O)OC2c3nccnc3C(=O)N2c2ccc(Cl)cn2)CC1 (stereo not drawn) [ZOPICLONE]          > 10 µM
6  COC(=O)[C@@H]1CC2=CC(=O)CC[C@]2(C)[C@@]23O[C@@H]2C[C@@]2(C)[C@@H](CC[C@@]24CCC(=O)O4)[C@H]13 [EPLERENONE]          > 10 µM
7  COc1cc2c(cc1OC)C(=O)C(CC1CCN(Cc3ccccc3)CC1)C2 (stereo not drawn) [DONEPEZIL]          > 10 µM
8  CCOc1cc(N)c([N+](=O)[O-])cc1C(=O)NC1CCN(CC2CC=CCC2)CC1 (stereo not drawn) [CINITAPRIDE]         0.009 µM

====

Lab note: AC50 readings collected with Type-1 angiotensin II receptor (Homo sapiens, UniProt P30556) for the following compounds.
Sequence (P30556 whole entry): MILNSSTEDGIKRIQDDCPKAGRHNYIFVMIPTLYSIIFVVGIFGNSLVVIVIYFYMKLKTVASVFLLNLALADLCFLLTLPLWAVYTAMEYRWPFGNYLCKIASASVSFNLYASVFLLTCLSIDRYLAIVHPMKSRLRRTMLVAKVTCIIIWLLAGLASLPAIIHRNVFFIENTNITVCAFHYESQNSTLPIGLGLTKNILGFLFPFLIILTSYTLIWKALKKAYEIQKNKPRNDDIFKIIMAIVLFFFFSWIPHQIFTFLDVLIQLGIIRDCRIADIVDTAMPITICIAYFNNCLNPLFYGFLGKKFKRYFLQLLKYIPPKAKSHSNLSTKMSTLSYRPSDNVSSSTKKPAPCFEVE
Observation Type: AC50

> print(dat)
                                    compound  observation.type  observed.result
 1  Nc1ncnc2c1ncn2[C@@H]1O[C@H](COP(=O)(O)O)[C@@H](O)[C@H]1O [ADENOSINE PHOSPHATE]              AC50          > 30 µM
 2  COC(=O)C1=C(C)NC(C)=C(C(=O)OC(C)C)C1c1cccc2nonc12 (centres undefined)              AC50          > 10 µM
 3  CS(=O)(=O)c1ccc([C@@H](O)[C@@H](CO)NC(=O)C(Cl)Cl)cc1              AC50          > 30 µM
 4  CCOC(=O)[C@H](CCc1ccccc1)N[C@H]1CCCN2CCC[C@@H](C(=O)O)N2C1=O              AC50          > 30 µM
 5            CCCOc1ccc(C(=O)OCCN(CC)CC)cc1N              AC50          > 30 µM
 6  CC(C)NCC1CCc2cc(CO)c([N+](=O)[O-])cc2N1 (centres undefined)              AC50          > 10 µM
 7         C#CC1(OC(N)=O)CCCCC1 [ETHINAMATE]              AC50          > 30 µM
 8  CCOc1cc(N)c([N+](=O)[O-])cc1C(=O)NC1CCN(CC2CC=CCC2)CC1 (centres undefined) [CINITAPRIDE]              AC50          > 30 µM
 9         O=P(O)(O)C(O)(Cc1cccnc1)P(=O)(O)O              AC50          > 30 µM
10       CCCCCN(C)CCC(O)(P(=O)(O)O)P(=O)(O)O              AC50           6.2 µM
11  CC(C(=O)O)c1ccc(C(=O)c2cccs2)cc1 (centres undefined)              AC50          > 10 µM
12      NC(N)=Nc1nc(CSCCC(N)=NS(N)(=O)=O)cs1              AC50          > 30 µM
13  Cc1cc2c(OCC(CNC(C)(C)C)OC(=O)c3ccccc3)cccc2[nH]1 (centres undefined)              AC50          > 30 µM
14  C1=Cc2cccc(OCC3CNCCO3)c2C1 (centres undefined)              AC50          > 30 µM
15  CC(C)C(=O)Nc1ccc([N+](=O)[O-])c(C(F)(F)F)c1 [FLUTAMIDE]              AC50          > 10 µM
16               CN[C@@H](C)[C@H](O)c1ccccc1              AC50          > 30 µM
17      CCCCOc1cc(C(=O)NCCN(CC)CC)c2ccccc2n1              AC50          > 10 µM
18  CN(C)C(=O)OC1N=C(c2ccccc2)c2cc(Cl)ccc2N(C)C1=O (centres undefined)              AC50          > 30 µM
19  CNC(=O)c1cc(Oc2ccc(NC(=O)Nc3ccc(Cl)c(C(F)(F)F)c3)cc2)ccn1              AC50            11 µM
